Reference for the values: ChEMBL document CHEMBL2396621

# Test system: SK-MEL-28
# protocol-text: Cytotoxicity against human SK-MEL-28 cells assessed as growth inhibition at 10 uM after 48 hrs by coulter counter analysis
# Assay type: functional
# condition-parameters: SK-MEL-28, 48 h, read-out: GI
outcome-measure: inhibition of growth at 10 µM (%)
One number for each entry, in %.

O=C(CSc1nc2ccccc2c(=O)n1CCc1ccccc1)Nc1ccccc1C(=O)O 17
CCOC(=O)c1ccc(NC(=O)CSc2nc3ccccc3c(=O)n2CCc2ccccc2)cc1 14

Look at each compound and report its inhibition of growth at 10 µM.
1. O=C(CSc1nc2ccccc2c(=O)n1CCc1ccccc1)Nc1ccc(Cl)cc1
2. COc1ccc(NC(=O)CSc2nc3ccccc3c(=O)n2CCc2ccccc2)cc1
3. Cc1ccc(NC(=O)CSc2nc3ccccc3c(=O)n2CCc2ccccc2)cc1
4. COc1cc(NC(=O)CCSc2nc3ccccc3c(=O)n2CCc2ccccc2)cc(OC)c1OC

-- reply
1. 10
2. 11
3. 22
4. 42
